Each recorded value in this set is attributed to ChEMBL document CHEMBL1130810.

# System Under Test: Beta-3 adrenergic receptor (Homo sapiens, UniProt P13945)
# Sequence (P13945 whole entry): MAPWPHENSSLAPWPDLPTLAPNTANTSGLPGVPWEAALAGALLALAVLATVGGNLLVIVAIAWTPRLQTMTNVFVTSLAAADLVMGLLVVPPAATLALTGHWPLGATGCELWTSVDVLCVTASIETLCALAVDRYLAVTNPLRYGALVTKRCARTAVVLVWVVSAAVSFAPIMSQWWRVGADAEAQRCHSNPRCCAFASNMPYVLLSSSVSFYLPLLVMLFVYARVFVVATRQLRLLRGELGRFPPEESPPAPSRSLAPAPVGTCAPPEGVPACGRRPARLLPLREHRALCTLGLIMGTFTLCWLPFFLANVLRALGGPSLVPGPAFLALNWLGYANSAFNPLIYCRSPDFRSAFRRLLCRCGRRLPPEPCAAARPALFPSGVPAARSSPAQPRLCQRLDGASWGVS
# Assay Overview: Agonist activity against cloned human beta-3 adrenergic receptor
pEC50: −log10 of the molar value.
Metric Name: pEC50

// worked examples, pEC50 included
- Test Smiles: "COc1ccc(CC[C@H](C)NC[C@H](O)COc2ccc(O)cc2)cc1"
  pEC50: 6.70
- Test Smiles: "O=S(=O)(Cc1ccccc1)Nc1ccc(CCNC[C@H](O)COc2ccc(O)cc2)cc1"
  pEC50: 7.41
- Test Smiles: "COc1ccc(CC[C@@H](C)NC[C@@H](O)COc2ccc(O)cc2)cc1"
  pEC50: 5.22
- Test Smiles: "C[C@@H](Cc1ccc(O)cc1)NC[C@H](O)COc1ccc(O)cc1"
  pEC50: 7.60
- Test Smiles: "COc1ccc(CC[C@@H](C)NC[C@H](O)COc2ccc(O)cc2)cc1"
  pEC50: 6.22
- Test Smiles: "O=S(=O)(Nc1ccc(CCNC[C@H](O)COc2ccc(O)cc2)cc1)c1ccc(Cl)c(Cl)c1"
  pEC50: 7.24
- Test Smiles: "O=S(=O)(Nc1ccc(CCNC[C@H](O)COc2ccc(O)cc2)cc1)c1ccc(Cl)cc1"
  pEC50: 8.32
- Test Smiles: "O=C(Nc1ccc(CCNC[C@H](O)COc2ccc(O)cc2)cc1)c1ccccc1"
  pEC50: 7.21

a = O=S(=O)(Nc1ccc(CCNC[C@H](O)COc2ccc(O)cc2)cc1)c1ccccc1Cl
b = O=S(=O)(Nc1ccc(CCNC[C@H](O)COc2ccc(O)cc2)cc1)c1cccc(Cl)c1
Incoming: Parameter check: reported pEC50 is higher for which label, a or b ? Mark your selection by writing its label.
Outgoing: b
(b: 7.82, a: 7.27)

---

# System Under Test: Beta-1 adrenergic receptor (Homo sapiens, UniProt P08588)
# Sequence (P08588 whole entry): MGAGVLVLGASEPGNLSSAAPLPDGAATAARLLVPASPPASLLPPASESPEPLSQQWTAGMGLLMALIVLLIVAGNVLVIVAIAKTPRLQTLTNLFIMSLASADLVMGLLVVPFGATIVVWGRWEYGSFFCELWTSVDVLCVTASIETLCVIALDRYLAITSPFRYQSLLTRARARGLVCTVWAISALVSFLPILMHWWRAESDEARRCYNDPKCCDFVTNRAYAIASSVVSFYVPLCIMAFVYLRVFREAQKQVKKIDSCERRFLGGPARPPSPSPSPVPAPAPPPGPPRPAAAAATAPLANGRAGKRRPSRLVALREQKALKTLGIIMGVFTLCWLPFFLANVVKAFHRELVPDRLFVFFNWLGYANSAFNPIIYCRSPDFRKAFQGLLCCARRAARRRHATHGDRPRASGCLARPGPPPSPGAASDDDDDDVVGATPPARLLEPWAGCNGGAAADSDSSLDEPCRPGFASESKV
# Assay Overview: Compound was tested for agonist activity against cloned human beta-1 adrenergic receptor
Metric Name: EC50 (nM)
The answer is to be given in nM; state only the numeric part.

Incoming: For the molecule O=S(=O)(Nc1ccc(CCNC[C@H](O)COc2ccc(O)cc2)cc1)c1cnc2ccccc2c1 , what EC50 is on record?
Outgoing: 300

---

# System Under Test: Beta-1 adrenergic receptor (Homo sapiens)
# Assay Overview: biochemical
# Description: Tested for binding affinity against cloned human beta-1 adrenergic receptor from CHO cells using [125I]iodocyanopindolol as the radioligand
pIC50: −log10 of the molar value.
Metric Name: pIC50

// worked examples, pIC50 included
- Test Smiles: "Nc1ccc(CCNC[C@H](O)COc2ccc(O)cc2)cc1"
  pIC50: 6.00
- Test Smiles: "O=S(=O)(CCc1ccccc1)Nc1ccc(CCNC[C@H](O)COc2ccc(O)cc2)cc1"
  pIC50: 6.96
- Test Smiles: "C[C@@H](Cc1ccc(O)cc1)NC[C@H](O)COc1ccc(O)cc1"
  pIC50: 7.09
- Test Smiles: "CCCS(=O)(=O)Nc1ccc(CCNC[C@H](O)COc2ccc(O)cc2)cc1"
  pIC50: 6.00
- Test Smiles: "O=C(Nc1ccc(CCNC[C@H](O)COc2ccc(O)cc2)cc1)c1ccccc1"
  pIC50: 8.17
- Test Smiles: "Oc1ccc(CCNC[C@H](O)COc2ccc(O)cc2)cc1"
  pIC50: 6.05
- Test Smiles: "O=S(=O)(Nc1ccc(CCNC[C@H](O)COc2ccc(O)cc2)cc1)c1ccccc1Cl"
  pIC50: 6.21
- Test Smiles: "O=S(=O)(Cc1ccccc1)Nc1ccc(CCNC[C@H](O)COc2ccc(O)cc2)cc1"
  pIC50: 7.22
- Test Smiles: "O=S(=O)(Nc1ccc(CCNC[C@H](O)COc2ccc(O)cc2)cc1)c1ccccc1"
  pIC50: 6.74
- Test Smiles: "O=S(=O)(Nc1ccc(CCNC[C@H](O)COc2ccc(O)cc2)cc1)C1CCCCC1"
  pIC50: 5.70

A = CC(C)S(=O)(=O)Nc1ccc(CCNC[C@H](O)COc2ccc(O)cc2)cc1
B = CCCCCS(=O)(=O)Nc1ccc(CCNC[C@H](O)COc2ccc(O)cc2)cc1
Incoming: In terms of reported pIC50, does A or B have the smaller number? Mark your selection by writing its label.
Outgoing: B
(B: 6.00, A: 7.00)
